Biological target: PTHR1 (Rattus norvegicus, UniProt P25961)
Sequence (P25961 27-591): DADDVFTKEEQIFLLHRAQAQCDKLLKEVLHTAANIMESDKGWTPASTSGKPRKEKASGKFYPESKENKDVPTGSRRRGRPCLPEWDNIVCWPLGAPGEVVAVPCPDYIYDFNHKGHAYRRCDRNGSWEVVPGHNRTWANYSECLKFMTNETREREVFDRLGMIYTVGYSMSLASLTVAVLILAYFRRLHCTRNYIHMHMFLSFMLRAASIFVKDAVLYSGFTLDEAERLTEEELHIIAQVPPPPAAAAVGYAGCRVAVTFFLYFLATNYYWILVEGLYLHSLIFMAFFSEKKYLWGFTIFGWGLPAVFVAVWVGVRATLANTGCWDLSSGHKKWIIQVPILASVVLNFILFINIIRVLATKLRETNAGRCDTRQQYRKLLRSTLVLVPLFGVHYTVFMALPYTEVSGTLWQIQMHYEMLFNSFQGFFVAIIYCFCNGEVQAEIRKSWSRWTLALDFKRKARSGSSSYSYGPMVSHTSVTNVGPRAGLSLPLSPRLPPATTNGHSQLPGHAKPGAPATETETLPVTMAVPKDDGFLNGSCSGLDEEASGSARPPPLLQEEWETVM
Experiment: cAMP screening assay using DiscoveRX XS+ kit (PTH1-34 dose-response in UMR-106 cells)
Details: compound 10 μM, PTH1-34 stimulated maximal response, 1−(Emax compound/Emax vehicle)
Could you mark each record true (1) if its Inhibition of Maximal Response falls strictly under 20%, and false (0) if it equals or exceeds it?

>>> df
                                sequence                          target_or_system   category
 0            NIVRVLATKLRE [Compound 55]  PTHR1 (Rattus norvegicus, UniProt P25961)  false (0)
 1        TNAGRSDTRQQYAKLL [Compound 91]  PTHR1 (Rattus norvegicus, UniProt P25961)   true (1)
 2     HSLIFMAFFSEKKYLWGFT [Compound 36]  PTHR1 (Rattus norvegicus, UniProt P25961)   true (1)
 3        RETNAGRSDTRQQYRK [Compound 60]  PTHR1 (Rattus norvegicus, UniProt P25961)   true (1)
 4             GSEKKYLWGFT [Compound 42]  PTHR1 (Rattus norvegicus, UniProt P25961)  false (0)
 5         SRWTLALDFKRKAR [Compound 104]  PTHR1 (Rattus norvegicus, UniProt P25961)  false (0)
 6      KKSWSRWTLALDFKRKAR [Compound 97]  PTHR1 (Rattus norvegicus, UniProt P25961)  false (0)
 7  LYLHSLIFMAFFSEKKYLWGFT [Compound 34]  PTHR1 (Rattus norvegicus, UniProt P25961)   true (1)
 8            RRLHSTRNYIHMH [Compound 1]  PTHR1 (Rattus norvegicus, UniProt P25961)   true (1)
 9         HSLIFMAFFSEKKYL [Compound 33]  PTHR1 (Rattus norvegicus, UniProt P25961)  false (0)
10      TNAGRSDTRQQYRKLLKS [Compound 64]  PTHR1 (Rattus norvegicus, UniProt P25961)   true (1)
11    LYLHSLIFMAFFSEKKYLWG [Compound 38]  PTHR1 (Rattus norvegicus, UniProt P25961)  false (0)

* * *

Target: PTHR1 (Rattus norvegicus)
Sequence (P25961 27-591): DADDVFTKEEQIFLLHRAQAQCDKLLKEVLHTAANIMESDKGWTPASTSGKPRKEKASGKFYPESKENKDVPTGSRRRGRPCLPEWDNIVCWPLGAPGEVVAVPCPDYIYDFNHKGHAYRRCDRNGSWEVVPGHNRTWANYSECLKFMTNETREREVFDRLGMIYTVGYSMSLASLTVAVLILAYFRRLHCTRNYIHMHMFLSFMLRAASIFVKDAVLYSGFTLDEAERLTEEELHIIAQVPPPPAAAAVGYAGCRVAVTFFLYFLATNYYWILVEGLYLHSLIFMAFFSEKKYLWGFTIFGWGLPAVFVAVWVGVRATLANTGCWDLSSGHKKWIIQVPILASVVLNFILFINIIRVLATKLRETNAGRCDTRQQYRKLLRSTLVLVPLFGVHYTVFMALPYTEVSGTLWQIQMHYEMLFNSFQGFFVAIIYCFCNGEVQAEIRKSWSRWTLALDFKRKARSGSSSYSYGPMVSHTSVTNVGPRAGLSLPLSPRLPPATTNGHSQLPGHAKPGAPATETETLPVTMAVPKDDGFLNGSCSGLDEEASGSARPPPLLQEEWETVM
Assay: cAMP screening assay using DiscoveRX XS+ kit (PTH1-34 dose-response in UMR-106 cells)
Conditions: compound 10 μM, PTH1-34 stimulated maximal response, 1−(Emax compound/Emax vehicle)
* marks the point of attachment. Palmitoyl = CCCCCCCCCCCCCCCC(=O)*
Listing of entries alongside the reported Inhibition of Maximal Response.

SUBSTANCE	Inhibition of Maximal Response (%)
SWSRWTLALDFKRKAR [Compound 102]	−25.40
RRLHSTRNYIHM [Compound 15]	1.50
AGRSDTRQQYRKLLFA [Compound 94]	−24.40
DTRQQYRKLLKSTL [Compound 56]	−30.40
AGRSDTRQQYRKLLFS [Compound 95]	−5.70
TNAGRSDTRQQYRF [Compound 70]	15.10
RETNAGRSDTRQQYRF [Compound 61]	−47.60
LAYFRRLHSTRN [Compound 14]	15.20
RVLATKLRETNAGR [Compound 75]	12.60
TNAGRSDTRQQARKLL [Compound 92]	8.30
LAYFRRLHSTRNYIHMH [Compound 10]	24.10
NGEVQAEIKKSWSRWTLA [Compound 98]	0.50
RETNAGRSDTRQQY [Compound 62]	−5.40
RQQYRKLLKSTL [Compound 57]	−38.80
TNAGRADTRQQYRKLL [Compound 77]	9.90
KLRETNAGRSDTRQQRKLL [Compound 47]	8.30
NGEVQAEIKKSWSR [Compound 100]	26.80
EIKKSWSRWTLALDFKRKAR [Compound 96]	7.00
TNAGRSDTRQQYRKLLF [Compound 83]	−5.80
SGRVLATKLRETNAGR [Compound 74]	22.20
Pal-GSEKKYLWGFTVF-amide (Palmitoyl-GSEKKYLWGFTVF-NH2; SMILES CCCCCCCCCCCCCCCC(=O)NCC(=O)N[C@@H](CO)C(=O)N[C@@H](CCC(=O)O)C(=O)N[C@@H](CCCCN)C(=O)N[C@@H](CCCCN)C(=O)N[C@@H](Cc1ccc(O)cc1)C(=O)N[C@@H](CC(C)C)C(=O)N[C@@H](Cc1c[nH]c2ccccc12)C(=O)NCC(=O)N[C@@H](Cc1ccccc1)C(=O)N[C@H](C(=O)N[C@H](C(=O)N[C@@H](Cc1ccccc1)C(N)=O)C(C)C)[C@@H](C)O) [Compound 41]	17.70
RETNAGRSDTRQ [Compound 63]	1.20
SGRVLATKLRET [Compound 72]	22.30
KLRETNAGRSDTRQQY [Compound 53]	6.40
TNAGRSDTRQQYRKLLFA [Compound 86]	5.20
GSEKKYLWG [Compound 43]	5.70
SGRRLHSTRNYIHMH [Compound 17]	39.40
RSDTRQQYRKLLKS [Compound 66]	−39.00
RETNAGRSDTRQQYRKLL [Compound 59]	3.00
VRVLATKLRETNAGRSDTR [Compound 45]	9.10
TNAGASDTRQQYRKLL [Compound 76]	2.40
TNAGRSDARQQYRKLL [Compound 79]	1.20
RETNAGRSDTRQQRKLLKS [Compound 48]	−3.30
TNAGRSDTRQAYRKLL [Compound 93]	−67.00
SSYFRRLHSTRNYIH [Compound 12]	26.60
LAYFRRLHSTRNY [Compound 3]	−51.40
SGRVLATKLRETNA [Compound 73]	32.30
LAYFRRLHSTRNYIH [Compound 5]	13.00
LHSLIFMAFFSEKKYLWGFT [Compound 37]	35.60
TNAGRSDTRQQYRKLLKSTL [Compound 52]	1.70
LYLHSLIFMAFFSEKKYL [Compound 39]	29.30
NIVRVLATKLRETNAGRSD [Compound 44]	−8.30
LYLHSLIFMSFFSEKK [Compound 40]	28.30
TNAGRSDTRQQYRKLLA [Compound 87]	8.00
RRLHSTRNYIH [Compound 2]	−24.90

* * *

Target: PTHR1 (Rattus norvegicus)
Sequence (P25961 27-591): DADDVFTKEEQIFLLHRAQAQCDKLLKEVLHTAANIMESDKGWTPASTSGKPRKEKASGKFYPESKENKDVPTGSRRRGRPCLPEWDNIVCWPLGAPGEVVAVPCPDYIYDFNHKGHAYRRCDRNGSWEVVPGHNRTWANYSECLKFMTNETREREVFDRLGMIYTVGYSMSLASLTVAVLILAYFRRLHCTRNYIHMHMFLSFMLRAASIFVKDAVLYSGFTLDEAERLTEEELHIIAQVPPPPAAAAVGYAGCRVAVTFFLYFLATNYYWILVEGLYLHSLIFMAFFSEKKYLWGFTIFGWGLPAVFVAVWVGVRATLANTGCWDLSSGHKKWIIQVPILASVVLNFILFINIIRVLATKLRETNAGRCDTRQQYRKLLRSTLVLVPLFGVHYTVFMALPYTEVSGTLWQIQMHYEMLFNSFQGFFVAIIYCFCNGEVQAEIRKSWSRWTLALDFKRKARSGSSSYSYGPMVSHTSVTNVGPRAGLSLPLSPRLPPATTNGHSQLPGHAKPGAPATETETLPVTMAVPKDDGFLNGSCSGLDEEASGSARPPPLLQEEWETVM
Experiment: cAMP screening assay using DiscoveRX XS+ kit (PTH1-34 dose-response in UMR-106 cells)
Conditions: compound 10 μM, PTH1-34 EC50 compound/EC50 vehicle
Reported Fold Shift of EC50 values for a set of sequences
READOUT_LABEL: Fold Shift of EC50

In [3]: df
Out[3]:
                         sequence           target_or_system  result_number
0      LAYFRRLHSTRNY [Compound 3]  PTHR1 (Rattus norvegicus)            0.7
1  TNAGRSDTRQQYRALL [Compound 90]  PTHR1 (Rattus norvegicus)              2
2  TNAGRSDTRQAYRKLL [Compound 93]  PTHR1 (Rattus norvegicus)           13.4
3        RRLHSTRNYIH [Compound 2]  PTHR1 (Rattus norvegicus)            1.9
4  TNAGRSDTRAQYRKLL [Compound 81]  PTHR1 (Rattus norvegicus)           13.8
5   GSYFRRLHSTRNYIH [Compound 11]  PTHR1 (Rattus norvegicus)            1.1
6  TNAARSDTRQQYRKLL [Compound 80]  PTHR1 (Rattus norvegicus)            2.3
7  TNAGRSDTRQQYRKAL [Compound 89]  PTHR1 (Rattus norvegicus)            2.3
8  TNAGRSDARQQYRKLL [Compound 79]  PTHR1 (Rattus norvegicus)            7.2
